Assay: Intracerebral microdialysis and plasma PK after i.p. administration in rats
Assay type: in vivo, male SD rats
Conditions: read-out: brain ECF Cmax; brain ECF, i.p. 25 mg/kg, rats
TEST READOUT: Cmax (nM)

> print(dat)
                         structure.notation  reported
1  CNC(=O)c1ccccc1Oc1nc(Nc2cc(OC)c(OC)c(OC)c2)ncc1Br       750
